TARGET_ENTITY: CB1 cannabinoid receptor (Rattus norvegicus, UniProt P20272)
Construct: membranes were prepared from rat forebrain membranes; from tissue; host or cells: rat forebrain
Sequence (P20272 whole entry): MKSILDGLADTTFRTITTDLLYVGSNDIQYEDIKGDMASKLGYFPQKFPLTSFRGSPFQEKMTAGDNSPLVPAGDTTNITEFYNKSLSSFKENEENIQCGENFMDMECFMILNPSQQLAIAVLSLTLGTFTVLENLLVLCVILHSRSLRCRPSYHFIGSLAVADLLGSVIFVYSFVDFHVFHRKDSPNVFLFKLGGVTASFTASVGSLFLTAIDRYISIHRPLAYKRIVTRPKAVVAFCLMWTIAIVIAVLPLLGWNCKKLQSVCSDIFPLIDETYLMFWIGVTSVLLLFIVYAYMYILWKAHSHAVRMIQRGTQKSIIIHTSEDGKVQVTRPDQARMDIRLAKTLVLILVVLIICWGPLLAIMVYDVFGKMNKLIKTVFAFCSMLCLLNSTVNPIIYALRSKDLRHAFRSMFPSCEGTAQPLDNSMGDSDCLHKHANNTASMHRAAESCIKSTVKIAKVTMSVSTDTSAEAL
ASSAY_PROCEDURE: CB1 receptor binding, rat forebrain membranes, [3H] CP-55,940 displacement
RECORDED_CONDITIONS: ratio of CB2 Ki to CB1 Ki
Kindly return y if reported selectivity CB1 is no lower than 7; return n if it is lower.

Take a look at these entries with their results.
molecule="O=C(NC1CCCCC1)c1nn(-c2ccc(Cl)cc2Cl)c(-c2ccc(Br)cc2)c1CBr [Compound 3-17]" target_entity="CB1 cannabinoid receptor (Rattus norvegicus, UniProt P20272)" assigned_class=y
molecule="COCc1c(C(=O)NC2CCCCC2)nn(-c2ccc(Cl)cc2Cl)c1-c1ccc(-c2ccsc2)cc1 [Compound 1-17]" target_entity="CB1 cannabinoid receptor (Rattus norvegicus, UniProt P20272)" assigned_class=n

## Input Given Cc1c(C(=O)NN2CCCCC2)nn(-c2ccc(Cl)cc2Cl)c1-c1ccc(-c2nnnn2C)cc1 [Compound 2-2] , state whether its selectivity CB1 is at least 7.
## Output n
